System: BDF1 mice, P388 leukemia ip, median survival T/C
Assay: NCI In Vivo Anticancer Drug Screen. Data for tumor model P388 Leukemia (intraperitoneal) in B6D2F1 (BDF1) mice
Settings: endpoint: median survival time; dose: 200.0 mg/kg/injection; schedule: Q01DX009 (ip); vehicle: saline; higher = longer survival
Toxic doses and inconclusive results are not listed.
The compounds listed here are annotated with their T/C.

Compound	T/C
Nc1cc(Cl)ccc1O	116 % of control
O=C(Cn1cc(F)c(=O)[nH]c1=O)N1CCC2(CC1)SSC1(CCN(C(=O)Cn3cc(F)c(=O)[nH]c3=O)CC1)S2	95 % of control
CC(=N\O)/C(C)=N/O.CC(=N\O)/C(C)=N/O.[Cl][Co][Cl]	100 % of control
CC(C)(C)OC(=O)NC(CCSCC(=O)O)C(N)=O (stereo unspecified)	95 % of control
CNC1C(OC2C(OC3C(O)C(O)C(O)C(O)C3O)OC(C)C2(O)CO)OC(CO)C(O)C1O (stereo unspecified) (tested in a mixture with another compound)	100 % of control
Nc1nc(=O)n(CC(=O)c2ccco2)cc1F	118 % of control
C=C(Cl)CSCCCS	104 % of control
COC(=O)C(=NO)C(=O)OC	96 % of control
CCC(=O)NC	100 % of control
COc1ccc(C(=O)CC(c2ccc(OC)c(OC)c2)c2c(O)c3ccccc3oc2=O)cc1OC (stereo unspecified)	93 % of control
COc1ccc(NC(=O)C(C)C(C)=O)cc1 (stereo unspecified)	100 % of control

====

The molecules listed here are annotated with their T/C.
System: BDF1 mice, P388 leukemia ip, median survival T/C
Experiment: NCI In Vivo Anticancer Drug Screen. Data for tumor model P388 Leukemia (intraperitoneal) in B6D2F1 (BDF1) mice
Settings: endpoint: median survival time; dose: 400.0 mg/kg/injection; schedule: Q04DX003 (ip); vehicle: saline with Tween-80; higher = longer survival
Inconclusive results and toxic doses are left out.
Parameter Measured: T/C

In [3]: df
Out[3]:
                                    molecule       measurement
 0                 C=C(C(N)=O)c1cc(Cl)ccc1Cl   95 % of control
 1    CC(C)CCS(=O)(=O)OCCCCOS(=O)(=O)CCC(C)C  104 % of control
 2          Cc1ccc(C)c(NC(=O)c2cccc(Cl)c2)c1  104 % of control
 3  O=P(Oc1ccc(OP(=O)(N2CC2)N2CC2)cc1)(N1CC1)N1CC1  254 % of control
 4           Cc1ccccc1-c1nc2c(N)nc(N)nc2nc1N  118 % of control
 5  CCCCCCCCCCCC[Si](CCCCCCCCCCCC)(c1ccccc1)c1ccccc1  100 % of control
 6  CC(=O)N1C(=O)NC(=O)C1(C)c1ccco1 (stereo not drawn)   90 % of control
 7  CC(=O)NCC(S)c1ccc(Cl)cc1 (stereo not drawn)   90 % of control
 8          OC/C(=N/Nc1ccc2ccccc2n1)c1ccccc1  101 % of control
 9  O=C(O)C(Br)C(Br)c1ccccc1 (stereo not drawn)  109 % of control
10                             Cc1ccccc1NC=O  116 % of control
11            CCCC(=O)Oc1ccc2c(C)cc(=O)oc2c1  100 % of control
12                    Cc1ccccc1C(=O)NCC(=O)O  100 % of control
13                             CN1CCCN(C)CC1  112 % of control
14  C1OC1CO[C@@H]1CO[C@H]2[C@@H]1OC[C@H]2OCC1CO1 (stereo partly drawn)  195 % of control
15                 O=C(Cc1ccc(F)cc1)c1ccccc1  105 % of control
16  CCC(=O)c1ccc(OCC(O)CN2CCN(c3ccccc3OC)CC2)cc1 (stereo not drawn)  119 % of control
17     c1ccc(CN2CCN(Cc3ccccc3)C2c2ccccc2)cc1   96 % of control
18    COC(OC)c1[nH]c(=S)[nH]c(=O)c1Cc1ccccc1  112 % of control
19              CCOC(=O)C(=CN1CCCC1)C(=O)OCC  109 % of control
20  COP(=O)(OC)C(OC(=O)C(C)(C)SC(C)=S)=C(C)C  115 % of control
21  O=C1c2ccccc2CCC12OC2c1ccc(Cl)cc1 (stereo not drawn)   95 % of control
22  CCOC(=O)CCCN(c1[nH]c(C)c(C)c1C#N)S(=O)(=O)c1ccc(C)cc1   95 % of control

====

The compounds listed here are annotated with their T/C.
Tested on: BDF1 mice, P388 leukemia ip, median survival T/C
Test: NCI In Vivo Anticancer Drug Screen. Data for tumor model P388 Leukemia (intraperitoneal) in B6D2F1 (BDF1) mice
Conditions: endpoint: median survival time; dose: 50.0 mg/kg/injection; schedule: Q01DX009 (ip); vehicle: other; higher = longer survival
Toxic doses and inconclusive results are not listed.
Parameter Measured: T/C

>>> df
                                test_smiles  parameter_measured       measurement
0                  COc1ccc(Cc2ccccc2)c(O)c1                 T/C  108 % of control
1  O=C1c2ccccc2C(=O)c2c(NCCN3CCCCC3)ccc(NCCN3CCCCC3)c21                 T/C  115 % of control
2              O=C(CCNOCc1ccccc1)OCc1ccccc1                 T/C  101 % of control
3  O=C1c2c(Cl)cccc2C(O)(c2ccccc2)c2cccc(Cl)c21                 T/C  100 % of control

====

Test system: BDF1 mice, P388 leukemia ip, median survival T/C
Test: NCI In Vivo Anticancer Drug Screen. Data for tumor model P388 Leukemia (intraperitoneal) in B6D2F1 (BDF1) mice
Conditions: endpoint: median survival time; dose: 400.0 mg/kg/injection; schedule: Q01DX009 (ip); vehicle: saline with Tween-80; higher = longer survival
Toxic doses and inconclusive results are not listed.
The compounds listed here are annotated with their T/C.
Parameter Measured: T/C

In [3]: df
Out[3]:
                                   compound  parameter_measured       measurement
0        NC(=O)c1ncc(-c2ccc(Cl)cc2)[nH]c1=O                 T/C  109 % of control
1      O=C1OC(c2ccccc2)(c2ccccc2)Cc2ccccc21                 T/C  100 % of control
2  CC1CC(N)=NC1C(=O)NCCC#N (stereo unspecified)                 T/C   98 % of control
3  COC(=O)C(CSCSC)NC(=O)/C=C\c1ccccc1 (stereo unspecified)                 T/C   90 % of control
4                            C=C(C)COC(N)=O                 T/C   87 % of control
5                   COc1ccc(NC(=S)N(C)C)cc1                 T/C  109 % of control

====

The compounds listed here are annotated with their T/C.
Tested on: BDF1 mice, P388 leukemia ip, median survival T/C
Assay: NCI In Vivo Anticancer Drug Screen. Data for tumor model P388 Leukemia (intraperitoneal) in B6D2F1 (BDF1) mice
Settings: endpoint: median survival time; dose: 25.0 mg/kg/injection; schedule: Q04DX003 (ip); vehicle: water; higher = longer survival
Inconclusive results and toxic doses are left out.
Parameter Measured: T/C

In [3]: df
Out[3]:
                                   compound       measurement
0          CNC(=O)c1n[nH]c(C)c1[N+](=O)[O-]  101 % of control
1  NC(=O)OCc1c(O)c2c(c(O)c1COC(N)=O)C(=O)C=CC2=O  104 % of control
2  CC(=O)Oc1ccc(N2C(=O)C3C(C2=O)C2c4ccccc4C3C3CCCCN32)cc1 (stereo unspecified) (tested in a mixture with another compound)   99 % of control
3  CCNC(C)(C)C(SS)c1ccc(Br)cc1 (stereo unspecified)  102 % of control
4  C1CCN[N-]C1.C1CCN[N-]C1.[Cl][Pt+2]([Cl])([Cl])[Cl]  104 % of control
5  NC(=O)C(CO)NC(=O)OCc1ccccc1 (stereo unspecified)  110 % of control

====

Tested on: BDF1 mice, P388 leukemia ip, median survival T/C
Experiment: NCI In Vivo Anticancer Drug Screen. Data for tumor model P388 Leukemia (intraperitoneal) in B6D2F1 (BDF1) mice
Settings: endpoint: median survival time; dose: 6.25 mg/kg/injection; schedule: Q01DX009 (ip); vehicle: saline with Tween-80; higher = longer survival
Toxic doses and inconclusive results are not listed.
Parameter Measured: T/C

>>> print(df.to_string())
                                   compound       measurement
0                      Cc1cc(C)c(CCl)cc1CCl  118 % of control
1                    CNc1ncnc2nc(OC)[nH]c12  101 % of control
2                                ON=C1CSSC1   90 % of control
3  COc1ccc2[nH]c3c(C)c4cc[n+](C)cc4c(C)c3c2c1   99 % of control
4                  Cn1nnc(N/N=C/c2ccccc2)n1   93 % of control
5  CC/C(C)=C1\OC(=O)C(C)C(O)C(Cc2cccnc2)NC(=O)C(NC(=O)c2ncccc2O)C(C)OC1=O (centres undefined)  106 % of control
6  CC1(c2ccc(Cl)s2)C(=O)N(Cl)C(=O)N1Cl (centres undefined)  112 % of control
7              COc1cccc2c(Cl)c(CCl)c(C)nc12   94 % of control
8  O=C(C=C(C(F)(F)F)C(F)(F)F)c1cccc(C(F)(F)F)c1  110 % of control
